Documented IC50 across a set of molecules
Test system: A549 (human lung carcinoma)
Experiment: MTT cell viability assay, A549
Assay type: cell-based
Conditions: Homo sapiens, A549; pure compounds; MTT, 48 h incubation
measured.endpoint: IC50

* CC(C)=CCc1c(O)cc2occ(-c3ccc(O)cc3)c(=O)c2c1O | > 296 µM
* CN1CC2CC(C1)c1cccc(=O)n1C2 (single isomer, unassigned; (-)) | 36.3 µM
* COc1cc(/C=C/C(=O)CC(=O)/C=C/c2ccc(O)c(OC)c2)ccc1O [curcumin, reference compound] | 8.4 µM
* O=C1CCC=C2C3CC(CN12)C1CCCCN1C3 (single isomer, unassigned; (+)) [Compound 7, (+)-5,6-dehydrolupanine] | > 406 µM
* O=c1cccc2n1C[C@@H]1CNC[C@H]2C1 | 42.5 µM
* CC1(C)C=Cc2c(cc3occ(-c4ccc(O)cc4)c(=O)c3c2O)O1 | > 303 µM
* CC1(C)C=Cc2c(cc3occ(-c4ccc(O)c(CN5C[C@@H]6C[C@H](C5)c5cccc(=O)n5C6)c4)c(=O)c3c2O)O1 | 46.8 µM
* O=C1[C@@H]2C[C@H](CN3CCCC[C@@H]23)[C@H]2CCCCN12 [Compound 3, (+)-aphylline] | > 403 µM
* O=c1cccc2n1C[C@H]1C[C@@H]2CN2CCCC[C@H]12 | > 409 µM

----------
System: PC-3 (human prostate adenocarcinoma)
Assay: MTT cell viability assay, PC-3
Type: cell-based
Details: Homo sapiens; pure compounds; MTT, 48 h incubation
pIC50: −log10 of the molar value.
Quick list: pIC50 per entry.
measured.endpoint: pIC50

• CC1(C)C=Cc2c(cc3occ(-c4ccc(O)c(CN5C[C@@H]6C[C@H](C5)c5cccc(=O)n5C6)c4)c(=O)c3c2O)O1 [Compound 8] = 5.00
• O=c1cccc2n1C[C@H]1C[C@@H]2CN2CCCC[C@H]12 [Compound 4, (–)-anagyrine] = 4.47

----------
Test system: SiHa (human cervical carcinoma)
Assay: MTT cell viability assay, SiHa
Assay type: cell-based
Settings: Homo sapiens, SiHa; pure compounds; MTT, 48 h incubation
pIC50: −log10 of the molar value.
measured.endpoint: pIC50

• COc1cc(/C=C/C(=O)CC(=O)/C=C/c2ccc(O)c(OC)c2)ccc1O [curcumin, reference compound] = 5.19
• CC1(C)C=Cc2c(cc3occ(-c4ccc(O)c(CN5C[C@@H]6C[C@H](C5)c5cccc(=O)n5C6)c4)c(=O)c3c2O)O1 [Compound 8] = 4.76
• O=c1cccc2n1C[C@@H]1CNC[C@H]2C1 [Compound 1, (–)-cytisine] = 3.45
• CC1(C)C=Cc2c(cc3occ(-c4ccc(O)cc4)c(=O)c3c2O)O1 [Compound 2, alpinumisoflavone] = 4.71

----------
Test system: SiHa (human cervical carcinoma)
Assay: MTT cell viability assay, SiHa
Format: cell-based
Conditions: Homo sapiens, SiHa; pure compounds; MTT, 48 h incubation
pIC50: −log10 of the molar value.
measured.endpoint: pIC50

- O=C1CCC=C2C3CC(CN12)C1CCCCN1C3 (single isomer, unassigned; (+)) [Compound 7, (+)-5,6-dehydrolupanine]: < 3.39
- CC(C)=CCc1c(O)cc2occ(-c3ccc(O)cc3)c(=O)c2c1O: < 3.53
- O=c1cccc2n1C[C@H]1C[C@@H]2CN2CCCC[C@H]12: < 3.39
- CN1CC2CC(C1)c1cccc(=O)n1C2 (single isomer, unassigned; (-)): < 3.31
- O=C1[C@@H]2C[C@H](CN3CCCC[C@@H]23)[C@H]2CCCCN12 [Compound 3, (+)-aphylline]: < 3.39
